assay explanation: human bone marrow CFU-C assay
reported conditions: human, bone marrow cells
readout: activity at 1.5 h, 500 µM

Request: Sample CO[C@@]12[C@H](COC(N)=O)C3=C(C(=O)C(C)=C(N)C3=O)N1C[C@H]1[C@@H]2N1C(=S)N[C@@H]1O[C@H](COC(C)=O)[C@@H](OC(C)=O)[C@H](OC(C)=O)[C@H]1NC(C)=O — what was its activity at 1.5 h, 500 µM?
Result: 43%

###

assay explanation: in vitro
reported conditions: human, bone marrow cells
readout: activity at 1.5 h, 10 µM

Request: Sample CO[C@@]12[C@H](COC(N)=O)C3=C(C(=O)C(C)=C(N)C3=O)N1C[C@@H]1N[C@@H]12 [Mitomycin C, mitomycin C, reference compound] — what was its activity at 1.5 h, 10 µM?
Result: < 10%
